What Agonism Ba/F-LP cells (% of hPRL max activity) was measured for each of the following?
targetUnderTest: T1, human prolactin receptor (human, UniProt P16471 25-622)
T1 sequence (looked up): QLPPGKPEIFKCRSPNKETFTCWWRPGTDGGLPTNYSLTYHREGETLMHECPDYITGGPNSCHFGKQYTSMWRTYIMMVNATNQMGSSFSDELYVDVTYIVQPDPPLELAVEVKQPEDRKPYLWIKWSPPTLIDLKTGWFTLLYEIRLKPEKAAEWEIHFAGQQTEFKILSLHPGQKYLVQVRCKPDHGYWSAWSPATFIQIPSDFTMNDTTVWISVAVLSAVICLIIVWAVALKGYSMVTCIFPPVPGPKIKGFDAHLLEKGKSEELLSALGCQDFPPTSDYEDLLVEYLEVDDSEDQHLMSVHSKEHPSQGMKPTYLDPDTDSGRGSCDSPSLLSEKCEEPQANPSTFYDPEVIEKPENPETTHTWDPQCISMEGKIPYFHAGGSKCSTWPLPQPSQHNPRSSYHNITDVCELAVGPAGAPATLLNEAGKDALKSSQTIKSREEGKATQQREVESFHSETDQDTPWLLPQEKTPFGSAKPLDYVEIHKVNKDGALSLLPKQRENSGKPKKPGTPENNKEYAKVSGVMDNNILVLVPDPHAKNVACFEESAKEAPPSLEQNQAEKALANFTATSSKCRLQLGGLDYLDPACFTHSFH
assayRemarks: cell-based or functional assay

Report Agonism Ba/F-LP cells (% of hPRL max activity) for G129Y-hPRL (ligand, human, UniProt P01236 29-227, looked up) LPICPGGAARCQVTLRDLFDRAVVLSHYIHNLSSEMFSEFDKRYTHGRGFITKAINSCHTSSLATPEDKEQAQQMNQKDFLSLIVSILRSWNEPLYHLVTEVRGMQEAPEAILSKAVEIEEQTKRLLEYMELIVSQVHPETKENEIYPVWSGLPSLQMADEESRLSAYYNLLHCLRRDSHKIDNYLKLLKCRIIHNNNC please. 24.3 % of hPRL max activity

Tell me the measured Agonism Ba/F-LP cells (% of hPRL max activity) of G129L-hPRL (ligand, human, UniProt P01236 29-227, looked up) LPICPGGAARCQVTLRDLFDRAVVLSHYIHNLSSEMFSEFDKRYTHGRGFITKAINSCHTSSLATPEDKEQAQQMNQKDFLSLIVSILRSWNEPLYHLVTEVRGMQEAPEAILSKAVEIEEQTKRLLELMELIVSQVHPETKENEIYPVWSGLPSLQMADEESRLSAYYNLLHCLRRDSHKIDNYLKLLKCRIIHNNNC , please. 16.8 % of hPRL max activity

Look up Agonism Ba/F-LP cells (% of hPRL max activity): G129V-hPRL (ligand, human, UniProt P01236 29-227, looked up) LPICPGGAARCQVTLRDLFDRAVVLSHYIHNLSSEMFSEFDKRYTHGRGFITKAINSCHTSSLATPEDKEQAQQMNQKDFLSLIVSILRSWNEPLYHLVTEVRGMQEAPEAILSKAVEIEEQTKRLLEVMELIVSQVHPETKENEIYPVWSGLPSLQMADEESRLSAYYNLLHCLRRDSHKIDNYLKLLKCRIIHNNNC 14.2 % of hPRL max activity

For G129R-hPRL (ligand, human, UniProt P01236 29-227, looked up, mature) LPICPGGAARCQVTLRDLFDRAVVLSHYIHNLSSEMFSEFDKRYTHGRGFITKAINSCHTSSLATPEDKEQAQQMNQKDFLSLIVSILRSWNEPLYHLVTEVRGMQEAPEAILSKAVEIEEQTKRLLERMELIVSQVHPETKENEIYPVWSGLPSLQMADEESRLSAYYNLLHCLRRDSHKIDNYLKLLKCRIIHNNNC , what is its reported Agonism Ba/F-LP cells (% of hPRL max activity)? 45.5 % of hPRL max activity
